Assay summary: NCI Yeast Anticancer Drug Screen. Data for the sgs1 mgt1 strain (AID 161);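 also: 0% = growth of cultures given vehicle only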
Test parameters: S. cerevisiae sgs1 mgt1 strain, at 5.0 µM (retest, dose inferred, filed as 0.5)
This is part of a sample that, as a whole, favours compounds with a hit. Of some 79,000 tested, about 15% had one in any assay. The source made the active and inactive calls. Rule as the data show it: active = growth inhibition above about 70%; inactive = the rest.
Labels: active, inactive

Compound: COC(=O)C1(N2CCOCC2)CCC([C@@H](c2ccccc2)C(C)[N+](=O)[O-])C1 (some centres undefined)
Assigned class: inactive
--
Compound: O=C1C(C(O)(C(F)(F)F)C(F)(F)F)CCC1C(O)(C(F)(F)F)C(F)(F)F (centres undefined)
Assigned class: inactive
--
Compound: Cc1nc2ccc(Br)cc2c(=O)n1-c1ccc(NC2OCC(O)C(O)C2O)cc1 (centres undefined)
Assigned class: inactive
--
Compound: COc1ccc(CCN2C(=O)C=CC2=O)cc1OC
Assigned class: active
--
Compound: C[n+]1c(-c2ccc(NC(=O)c3ccc(C(=O)Nc4ccc(-c5cn6ccccc6[n+]5C)cc4)cc3)cc2)cn2ccccc21
Assigned class: inactive
--
Compound: CC(O)CN1C(=O)c2cccc3cc([N+](=O)[O-])cc(c23)C1=O (centres undefined)
Assigned class: inactive
--
Compound: O=C(Cc1ccccc1F)NC1=C(Cl)C(=O)c2ccccc2C1=O
Assigned class: inactive
--
Compound: Cc1nc2ccc(NCCN(C)C)c3c(=O)c4ccccc4n1c23
Assigned class: inactive
--
Compound: CCN(CC)CCSc1c2ccccc2nc2cc(NCC(=O)Nc3ccccc3-c3ccccc3NC(=O)CNc3ccc4c(SCCN(CC)CC)c5ccccc5nc4c3)ccc12
Assigned class: inactive

* * *

The molecules listed here are annotated with their growth inhibition.
Assay summary: NCI Yeast Anticancer Drug Screen. Data for the sgs1 mgt1 strain (AID 161);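 also: 0% = growth of cultures given vehicle only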
Test parameters: S. cerevisiae sgs1 mgt1 strain, at 5.0 µM (retest, dose inferred, filed as 0.5), stronger effect = higher value
The panel holds about 79,000 compounds, 15% with a hit somewhere; the sample as a whole holds those more often.

Molecule: CN(C)c1ccc(/C=C/c2ccnc3ccc4ccccc4c23)cc1
growth inhibition [%]: -2
--
Molecule: COc1ccc2nc(N/N=C/c3sccc3C)cc(C)c2c1
growth inhibition [%]: 96
--
Molecule: CCOc1ccc2ccc3cccnc3c2n1
growth inhibition [%]: -8
--
Molecule: O=Cn1c2ccccc2c2ccccc21
growth inhibition [%]: -16
--
Molecule: CN(C)CCC(=O)c1c[nH]c2ccccc12
growth inhibition [%]: 15
--
Molecule: O=C1OC(/C=C/c2ccccc2)Sc2ccccc21 (configuration not stated)
growth inhibition [%]: 3
--
Molecule: Nc1ccc2ncc(Nc3ccc(Cl)c(Cl)c3)nc2c1
growth inhibition [%]: 12

* * *

Assay summary: NCI Yeast Anticancer Drug Screen. Data for the wt1 strain (AID 149);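 also: 0% = growth of vehicle-treated wt1 cultures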
Test parameters: S. cerevisiae wt1 strain (SPY 50644) growth inhibition; at 1.2 µM; stronger effect = higher value
This is part of a sample that, as a whole, favours compounds with a hit. Of some 79,000 tested, about 15% had one in any assay.

Molecule: COc1ccc(C(=O)OCCc2ccccc2)cc1
growth inhibition [%]: -2

Molecule: COc1cc(C(C)C(C(=O)O)C(=O)C(=O)O)cc(OC)c1OC (stereo unspecified)
growth inhibition [%]: 0

Molecule: CCOC(=O)/C=C1\CCCn2c1ncc(C(=O)OCC)c2=O
growth inhibition [%]: 2

Molecule: CC1=Cc2ccc(C)cc2C(=O)C1=O
growth inhibition [%]: -10

Molecule: CC1C=CN(N(C)C)C2=C1C(=O)c1cnccc1C2=O (stereo unspecified)
growth inhibition [%]: -1

Molecule: CC1=NN(C(=O)CC(=O)N(C(=O)c2ccccc2)c2ccc(Cl)cc2)C(=O)C1N=Nc1ccc([N+](=O)[O-])cc1 (stereo unspecified)
growth inhibition [%]: -43

* * *

Assay summary: NCI Yeast Anticancer Drug Screen. Data for the CLN2oe strain (AID 163);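 also: 0% = growth of vehicle-only control cultures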
Test parameters: S. cerevisiae CLN2oe strain, at 3.7 µM, stronger effect = higher value
The panel holds about 79,000 compounds, 15% with a hit somewhere; the sample as a whole holds those more often.
The molecules listed here are annotated with their growth inhibition.

Molecule: O=C(Cc1ccccc1F)NC1=C(Cl)C(=O)c2ccccc2C1=O
growth inhibition, %: 18
//
Molecule: COc1cc(C(C)(C)C)cc(OC)c1C(O)(c1c(OC)cc(C(C)(C)C)cc1OC)c1c(OC)cc(C(C)(C)C)cc1OC
growth inhibition, %: 45
//
Molecule: NCC(O)CSCc1ccc(Cl)cc1 (stereo not given)
growth inhibition, %: 0
//
Molecule: CCC(C)C(=O)OCC(=O)c1ccc(-c2ccccc2)cc1 (stereo not given)
growth inhibition, %: 3
//
Molecule: CCOC(=O)c1sc2[n+](c1C)C(=O)/C(=C/c1cc(OC)c(OC)c(OC)c1)S2
growth inhibition, %: 5
//
Molecule: Nc1cccc2cc(Cl)cnc12
growth inhibition, %: -4
//
Molecule: COc1ccc(/C=C2\CCc3ccccc3C2=O)cc1OC
growth inhibition, %: 22
//
Molecule: CSc1ccc2c(c1)C(N1CCN(C)CC1)Cc1ccccc1S2 (stereo not given)
growth inhibition, %: 5
//
Molecule: CC[C@]1(O)C[C@H]2CN(CCc3c([nH]c4ccccc34)[C@@](C(=O)OC)(c3cc4c(cc3OC)N(C)[C@H]3[C@@](O)(C(=O)OC)[C@H](OC(C)=O)[C@]5(CC)C=CCN6CC[C@]43[C@@H]65)C2)C1
growth inhibition, %: 3
//
Molecule: O=S(=O)(Oc1c(Cl)cc(Cl)cc1Cl)c1ccccc1
growth inhibition, %: -4

* * *

Assay summary: NCI Yeast Anticancer Drug Screen. Data for the wt2 strain (AID 169);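 also: 0% = growth of vehicle-treated yeast cultures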
Test parameters: S. cerevisiae wt2 strain growth inhibition; at 3.7 µM; stronger effect = higher value
Procedure: Growth inhibition of yeast strains with defined genetic alterations is measured as a screen for potential anti-cancer activity. Selected strains with alterations in DNA damage repair or cell cycle control were exposed to compounds and growth inhibition was measured relative to vehicle treated controls. The strain used in this assay is wt2
Compounds without any hit were thinned out: in the full panel of roughly 79,000, 15% have a hit.
Experimental readout: growth inhibition (%)

Compound: CCCCCCCCCCCCCCCCCN
Data value: -12
--
Compound: COc1ccc2c(C)cc(N/N=C/c3sccc3C)nc2c1
Data value: -6
--
Compound: CN(C)c1ccc(C(c2ccc(Cl)cc2)c2ccc(N(C)C)cc2)cc1
Data value: 13
--
Compound: COc1cc(C(C)(C)C)cc(OC)c1C(O)(c1c(OC)cc(C(C)(C)C)cc1OC)c1c(OC)cc(C(C)(C)C)cc1OC
Data value: 15
--
Compound: O=C1OC(/C=C/c2ccccc2)Sc2ccccc21 (stereo not given)
Data value: -8
--
Compound: CN(C)CCNC(=O)c1cccc2nc3c4ccccc4c4ccccc4c3nc12
Data value: 9
--
Compound: O=C(CCC(=O)c1ccc(O)cc1)Oc1ccc(O)cc1
Data value: -1
--
Compound: CC1=NN(C(=O)CC(=O)N(C(=O)c2ccccc2)c2ccc(Cl)cc2)C(=O)C1N=Nc1ccc([N+](=O)[O-])cc1 (stereo not given)
Data value: 7
--
Compound: CCOc1ccc2ccc3cccnc3c2n1
Data value: 2
--
Compound: Cc1cnc(/C=N\NC(N)=S)c2cccc(N)c12
Data value: -48

* * *

Assay summary: NCI Yeast Anticancer Drug Screen. Data for the bub3 strain (AID 167)
Test parameters: S. cerevisiae bub3 mutant strain, at 3.7 µM, stronger effect = higher value
Compounds without any hit were thinned out: in the full panel of roughly 79,000, 15% have a hit. Starred links: 1 amine or outer side, 2 acyl side, 3 side chain; linkers in the order of their positions; H or OH if unused. Positions of bridges follow the written chain, without caps; N, C: chain ends. Non-standard residues stand in square brackets, D forms with d. Residues, ends and D or L forms follow the SMILES beside them. Chains are numbered I, II in the order given. Actinocin(9to1) = Cc1c2oc3c(C)ccc(C(=O)[*:1])c3nc-2c(C(=O)[*:2])c(N)c1=O; aThr = C[C@H](O)[C@H](N)C(=O)O; NMeV = CN[C@H](C(=O)O)C(C)C; Sar = CNCC(=O)O

Molecule: c1ccc2cc(OCC3CO3)c(OCC3CO3)cc2c1 (stereo unspecified)
growth inhibition (%): -26
--
Molecule: Cc1c2oc3c(C)ccc(C(=O)N[C@@H]4C(=O)N[C@H](C(C)C)C(=O)N5CCC[C@H]5C(=O)N(C)CC(=O)N(C)[C@@H](C(C)C)C(=O)O[C@H]4C)c3nc-2c(C(=O)N[C@@H]2C(=O)N[C@H](C(C)C)C(=O)N3CCC[C@H]3C(=O)N(C)CC(=O)N(C)[C@@H](C(C)C)C(=O)O[C@H]2C)c(N)c1=O (I: [aThr][dV]P[Sar][NMeV] / II: [aThr][dV]P[Sar][NMeV]; ester I:1-I:C, II:1-II:C; linker I:N-II:N via Actinocin(9to1))
growth inhibition (%): 28
--
Molecule: CCC(C)/C(C)=N/NC(N)=O (stereo unspecified)
growth inhibition (%): -2
--
Molecule: Cc1cccc(N2CCN(C(=O)/C(=C/c3ccccc3)NC(=O)c3ccccc3)CC2)c1
growth inhibition (%): -1
--
Molecule: O=C(Cc1ccccc1F)NC1=C(Cl)C(=O)c2ccccc2C1=O
growth inhibition (%): 17
--
Molecule: CCOc1ccc2ccc3cccnc3c2n1
growth inhibition (%): -3
--
Molecule: CCCCOc1ccc(Nc2c3ccccc3nc3ccccc23)cc1
growth inhibition (%): -55
--
Molecule: O=S(=O)(Oc1c(Cl)cc(Cl)cc1Cl)c1ccccc1
growth inhibition (%): -4
--
Molecule: Cc1cc(NC(=S)SCc2ccc(Cl)cc2)ccc1Cl
growth inhibition (%): -8
--
Molecule: O=C1c2ccc(O)cc2C(=O)c2c(O)ccc(O)c21
growth inhibition (%): 0
--
Molecule: O=S(=O)(CCC[C@H]1[C@@H](CCOCc2ccccc2)C2CCCN1O2)c1ccccc1 (stereo partly specified)
growth inhibition (%): 2
--
Molecule: [N-]=[N+]=NC1CC(n2ccc(=O)[nH]c2=O)OC1COC(c1ccccc1)(c1ccccc1)c1ccccc1 (stereo unspecified)
growth inhibition (%): -2
--
Molecule: CC[N+]1(C)CCC(O)(/C=C/c2ccc(Cl)c(Cl)c2)C(C(=O)/C=C/c2ccc(Cl)c(Cl)c2)C1 (stereo unspecified)
growth inhibition (%): 20
--
Molecule: Nc1cccc2cc(Cl)cnc12
growth inhibition (%): 10
--
Molecule: COc1ccc2c(C)cc(N/N=C/c3sccc3C)nc2c1
growth inhibition (%): 10
--
Molecule: Cc1ccccc1C1=C(CC(=O)O)c2ccccc2CC1C (stereo unspecified)
growth inhibition (%): 9
--
Molecule: C#CC1=CC(=O)C(OC)=CC1=O
growth inhibition (%): 0
--
Molecule: CC(=O)O/N=C/c1c2ccccc2cc2ccccc12
growth inhibition (%): 12
--
Molecule: CC1C=CN(N(C)C)C2=C1C(=O)c1cnccc1C2=O (stereo unspecified)
growth inhibition (%): -8
--
Molecule: O=C(O)/C=C\C(=O)NNc1ccc(Br)cc1
growth inhibition (%): 60
--
Molecule: Cc1ccc(S(=O)(=O)N/N=C/c2c(O)ccc3ccccc23)cc1
growth inhibition (%): 34
--
Molecule: O=C(O)[C@H]1[C@@H](C2CCCCC2)O[C@@H](C2CCCCC2)O[C@H]1C(F)(F)F
growth inhibition (%): 2
--
Molecule: CN(C)c1ccc(/C=C/c2ccnc3ccc4ccccc4c23)cc1
growth inhibition (%): -8
--
Molecule: Cc1ccnc(NS(=O)(=O)c2ccc(Nc3c4ccccc4nc4ccccc34)cc2)n1
growth inhibition (%): -21
--
Molecule: NCC(O)CSCc1ccc(Cl)cc1 (stereo unspecified)
growth inhibition (%): -2
--
Molecule: Cc1ccc(SSc2ccc(C)cc2[N+](=O)[O-])c([N+](=O)[O-])c1
growth inhibition (%): -3
--
Molecule: CCCCCCCCCCCCCCCCOCC(Cl)COP(=O)(O)OP(=O)(O)OCC1OC(n2cnc3c(N)ncnc32)C(O)C1O (stereo unspecified)
growth inhibition (%): -25
--
Molecule: O=C1OC(c2ccc(Cl)cc2)Sc2ccccc21 (stereo unspecified)
growth inhibition (%): 15
--
Molecule: CC1=NN(C(=O)CC(=O)N(C(=O)c2ccccc2)c2ccc(Cl)cc2)C(=O)C1N=Nc1ccc([N+](=O)[O-])cc1 (stereo unspecified)
growth inhibition (%): -6
--
Molecule: BrC/C=C/C[P+](c1ccccc1)(c1ccccc1)c1ccccc1
growth inhibition (%): -7
--
Molecule: Cc1cccc[c]1[Sn]([Cl])([S]/C(C#N)=N/N=C/c1ccc(N(C)C)cc1)[c]1ccccc1C
growth inhibition (%): -6
